- Test system: 485176-168-R4-J1-PDC spheroids with HUVEC/MSC, viability
- Measurement Description: Anticancer human tumor 485176-168-R4-J1-PDC patient-derived pancreatic adenocarcinoma cell line growth inhibition [GQUAD]
- Experimental Setup: second compound 0.1 µM; first compound 0.00999 µM; active compounds read low
List of viability, T/C values.
The figure you give is taken to be in %; do not add the unit.

These solved cases illustrate the format of a correct answer.
Compound | viability, T/C, %
Cc1[nH]c2ccccc2c1CCNCc1ccc(/C=C/C(=O)NO)cc1 + Cc1cnc(CNC(=O)c2c(=O)c3ccc(N4CCCN(C)CC4)nc3n3c2sc2ccccc23)cn1 | 49.4
CC[C@@]1(O)C(=O)OCc2c1cc1n(c2=O)Cc2cc3c(CN(C)C)c(O)ccc3nc2-1 + CN(C)c1ccc(Nc2c3ccc(NC(=O)CCN4CCCC4)cc3nc3cc(NC(=O)CCN4CCCC4)ccc23)cc1 | 95.9
Cn1ncnc1[C@H]1c2n[nH]c(=O)c3cc(F)cc(c23)N[C@@H]1c1ccc(F)cc1 + CN(C)c1ccc(Nc2c3ccc(NC(=O)CCN4CCCC4)cc3nc3cc(NC(=O)CCN4CCCC4)ccc23)cc1 | 107
Cc1[nH]c2ccccc2c1CCNCc1ccc(/C=C/C(=O)NO)cc1 + Cc1[nH]c2ccc(F)cc2c1-c1nc2c3cccnc3c3ncccc3c2[nH]1 | 89.5
CC[C@@]1(O)C(=O)OCc2c1cc1n(c2=O)Cc2cc3c(CN(C)C)c(O)ccc3nc2-1 + Cc1[nH]c2ccc(F)cc2c1-c1nc2c3cccnc3c3ncccc3c2[nH]1 | 97.1

Identify the reported viability, T/C for the following entry. CCc1c2c(nc3ccc(O)cc13)-c1cc3c(c(=O)n1C2)COC(=O)[C@]3(O)CC + Cc1[nH]c2ccc(F)cc2c1-c1nc2c3cccnc3c3ncccc3c2[nH]1
35.6

Identify the reported viability, T/C for the following entry. Cn1ncnc1[C@H]1c2n[nH]c(=O)c3cc(F)cc(c23)N[C@@H]1c1ccc(F)cc1 + Cc1[nH]c2ccc(F)cc2c1-c1nc2c3cccnc3c3ncccc3c2[nH]1
88.3

###

- System: 485176-168-R4-J1-PDC spheroids with HUVEC/MSC, viability
- Measurement Description: Anticancer human tumor 485176-168-R4-J1-PDC cell line growth inhibition [GQUAD];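 also: spheroids exposed to compounds for seven days before readout; percent viability relative to DMSO vehicle control wells as 100%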
- Experimental Setup: second compound 0.1 µM; first compound 0.0316 µM; active compounds read low
List of viability, T/C values.
The figure you give is taken to be in %; do not add the unit.

Compound | Measured Target | Unit Abbrev | Meas Value
Cn1ncnc1[C@H]1c2n[nH]c(=O)c3cc(F)cc(c23)N[C@@H]1c1ccc(F)cc1 + Cc1[nH]c2ccc(F)cc2c1-c1nc2c3cccnc3c3ncccc3c2[nH]1 | 485176-168-R4-J1-PDC spheroids with HUVEC/MSC, viability | % | 109
O=C(c1cc(Cc2n[nH]c(=O)c3ccccc23)ccc1F)N1CCN(C(=O)C2CC2)CC1 + Cc1cnc(CNC(=O)c2c(=O)c3ccc(N4CCCN(C)CC4)nc3n3c2sc2ccccc23)cn1 | 485176-168-R4-J1-PDC spheroids with HUVEC/MSC, viability | % | 63.5
COc1cccc2c1C(=O)c1c(O)c3c(c(O)c1C2=O)CC(O)(C(=O)CO)CC3OC1CC(N)C(O)C(C)O1 (stereo not given) + Cc1cnc(CNC(=O)c2c(=O)c3ccc(N4CCCN(C)CC4)nc3n3c2sc2ccccc23)cn1 | 485176-168-R4-J1-PDC spheroids with HUVEC/MSC, viability | % | 80.5
Nc1ccn(C2OC(CO)C(O)C2(F)F)c(=O)n1 (stereo not given) + CN(C)c1ccc(Nc2c3ccc(NC(=O)CCN4CCCC4)cc3nc3cc(NC(=O)CCN4CCCC4)ccc23)cc1 | 485176-168-R4-J1-PDC spheroids with HUVEC/MSC, viability | % | 63.7

Now let's try a different one.
Identify the reported viability, T/C for the following entry. CC(C)(O)C1CCC(Nc2ccc3ncc(-c4cccc(C(F)(F)F)c4)n3n2)CC1 (stereo not given) + Cc1cnc(CNC(=O)c2c(=O)c3ccc(N4CCCN(C)CC4)nc3n3c2sc2ccccc23)cn1
64.5
